Tested on: Escherichia coli TOP10
Experiment: shrunken log2 fold change of peptide-encoding DNA abundance (4.5 h post-induction vs induction); higher = less antimicrobial activity (less host growth inhibition)
Conditions: time post-induction: 4.5 h; library: site-saturation at positions 5, 18, 19, 20
Class assignment keyed on shrunken log2 fold change, ranges lo = under -0.06, med = from -0.06 up to 0.3, hi = 0.3 and over

Prompt: Form: Item = "RRIRIRPPRLPRPRPRPEARPRP" ; Class = ?
Response: hi

Prompt: Class for "RRIRYRPPRLPRPRPRPCKHPRP" ?
Response: lo

Prompt: Given "RRIRCRPPRLPRPRPRPDHDPRP" , name the class its shrunken log2 fold change places it in.
Response: lo

Prompt: Just checking, what class would you give "RRIRARPPRLPRPRPRPPWPPRP" here?
Response: hi

Prompt: Category of "RRIRGRPPRLPRPRPRPTPGPRP" :
Response: hi

Prompt: Category lookup for the sequence "RRIRNRPPRLPRPRPRPMTHPRP"
Response: lo

Prompt: Form field 'band' for "RRIRPRPPRLPRPRPRPLPQPRP"
Response: med

Prompt: For this sequence, which bin applies? "RRIRCRPPRLPRPRPRPIHPPRP"
Response: med

Prompt: # bin label for "RRIRIRPPRLPRPRPRPMHCPRP"
Response: med

Prompt: Pick a category. Item: "RRIRWRPPRLPRPRPRPGALPRP"
Response: hi

Prompt: Pick a category. Item: "RRIRDRPPRLPRPRPRPVNEPRP"
Response: med

Prompt: Assign a bin to "RRIRTRPPRLPRPRPRPDLTPRP"
Response: med

Prompt: Categorize the following entry: "RRIRCRPPRLPRPRPRPINKPRP"
Response: lo

Prompt: Which bin, given its shrunken log2 fold change, does "RRIRKRPPRLPRPRPRPYMCPRP" occupy?
Response: lo

Prompt: Category of "RRIRCRPPRLPRPRPRPSVWPRP" :
Response: med

====

System: Escherichia coli TOP10;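 note: peptides expressed intracellularly from a pBAD plasmid library in pooled LB shake-flask culture, induced with 0.3% L-arabinose, DNA abundance read by NGS, three biological replicates, DESeq2 with apeglm shrinkage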
Experiment: shrunken log2 fold change of peptide-encoding DNA abundance (4.5 h post-induction vs induction); higher = less antimicrobial activity (less host growth inhibition)
Settings: time post-induction: 4.5 h; library: site-saturation at positions 5, 18, 19, 20
READOUT_LABEL: shrunken log2 fold change
Write the value as a bare number.

The measured shrunken log2 fold change that "RRIRDRPPRLPRPRPRPHMQPRP" showed for Escherichia coli TOP10 is -0.368

Escherichia coli TOP10 shrunken log2 fold change of "RRIRQRPPRLPRPRPRPTADPRP" is 0.392

Reported shrunken log2 fold change (Escherichia coli TOP10) for entry "RRIRWRPPRLPRPRPRPHAFPRP" is 0.154

Short answer on Escherichia coli TOP10 for "RRIRWRPPRLPRPRPRPKPNPRP" , shrunken log2 fold change: 0.367

Item "RRIRHRPPRLPRPRPRPDPAPRP" ; assay system Escherichia coli TOP10; shrunken log2 fold change reported as 0.189

Item: "RRIRVRPPRLPRPRPRPCWTPRP" | System: Escherichia coli TOP10 | shrunken log2 fold change: -0.665

Note to self: shrunken log2 fold change of "RRIRVRPPRLPRPRPRPTARPRP" with Escherichia coli TOP10 was 0.293

Sample "RRIRERPPRLPRPRPRPKSQPRP" , system: Escherichia coli TOP10. Its shrunken log2 fold change is -0.0879

These data points were gathered from the supplement of paper PMC9112550.
